# testName: Oral bioavailability in Beagle dog at 2 mg/kg
# Type: ADME, organism-based, Canis lupus familiaris
# conditionLabel: in vivo
measurementLabel: bioavailability

- CC(C)c1ncn(CC(=O)N2CCN(c3sc(C(F)(F)F)nc3-c3cnc(C(F)(F)F)nc3)C[C@H]2C)n1: ≥ 100%

###

# testName: Volume of distribution at steady state in Beagle dog at 2.5 mg/kg,iv or 2.5 mg/kg, po
# Assay type: ADME, organism-based, Canis lupus familiaris
# conditionLabel: in vivo, read-out: Vdss
measurementLabel: Vd (L/kg)

- Cc1ncn(CC(=O)N2CCN(c3sc(C(F)(F)F)nc3-c3cnc(C(F)(F)F)nc3)C[C@H]2CCO)n1: 1.5

###

# measurementTarget: Cytochrome P450 3A4 (Homo sapiens)
# Sequence (P08684 whole entry): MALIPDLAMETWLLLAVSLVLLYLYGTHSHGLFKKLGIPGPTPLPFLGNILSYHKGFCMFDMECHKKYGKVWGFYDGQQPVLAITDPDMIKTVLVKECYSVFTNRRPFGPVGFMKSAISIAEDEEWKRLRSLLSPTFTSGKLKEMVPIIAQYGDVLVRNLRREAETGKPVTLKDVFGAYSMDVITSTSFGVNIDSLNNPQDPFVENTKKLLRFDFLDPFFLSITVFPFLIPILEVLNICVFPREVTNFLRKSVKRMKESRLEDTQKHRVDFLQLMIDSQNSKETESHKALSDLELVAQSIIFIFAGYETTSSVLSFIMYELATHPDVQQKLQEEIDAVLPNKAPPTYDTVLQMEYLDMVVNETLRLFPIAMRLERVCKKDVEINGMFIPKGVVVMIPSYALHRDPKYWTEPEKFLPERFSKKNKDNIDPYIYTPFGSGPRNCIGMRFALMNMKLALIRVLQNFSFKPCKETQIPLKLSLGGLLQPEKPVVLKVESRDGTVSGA
# testName: Competitive inhibition of CYP3A4 (unknown origin)
# Assay type: ADME
pIC50: −log10 of the molar value.
measurementLabel: pIC50

• Cc1ncn(CC(=O)N2CCN(c3sc(C(F)(F)F)nc3-c3cnc(C(F)(F)F)nc3)C[C@H]2CCO)n1 = < 4.30

###

# testName: Clearance in Cynomolgus monkey at 1.0 mg/kg,iv or 1.25 mg/kg, po
# Type: ADME, organism-based, Macaca fascicularis
# conditionLabel: in vivo
measurementLabel: clearance

* Cc1ncn(CC(=O)N2CCN(c3sc(C(F)(F)F)nc3-c3cnc(C(F)(F)F)nc3)C[C@H]2CCO)n1 | 5.3 mL/min/kg

###

Recorded IC50 for the following compounds
# measurementTarget: UniProtKB Q12809
# Sequence (Q12809 whole entry): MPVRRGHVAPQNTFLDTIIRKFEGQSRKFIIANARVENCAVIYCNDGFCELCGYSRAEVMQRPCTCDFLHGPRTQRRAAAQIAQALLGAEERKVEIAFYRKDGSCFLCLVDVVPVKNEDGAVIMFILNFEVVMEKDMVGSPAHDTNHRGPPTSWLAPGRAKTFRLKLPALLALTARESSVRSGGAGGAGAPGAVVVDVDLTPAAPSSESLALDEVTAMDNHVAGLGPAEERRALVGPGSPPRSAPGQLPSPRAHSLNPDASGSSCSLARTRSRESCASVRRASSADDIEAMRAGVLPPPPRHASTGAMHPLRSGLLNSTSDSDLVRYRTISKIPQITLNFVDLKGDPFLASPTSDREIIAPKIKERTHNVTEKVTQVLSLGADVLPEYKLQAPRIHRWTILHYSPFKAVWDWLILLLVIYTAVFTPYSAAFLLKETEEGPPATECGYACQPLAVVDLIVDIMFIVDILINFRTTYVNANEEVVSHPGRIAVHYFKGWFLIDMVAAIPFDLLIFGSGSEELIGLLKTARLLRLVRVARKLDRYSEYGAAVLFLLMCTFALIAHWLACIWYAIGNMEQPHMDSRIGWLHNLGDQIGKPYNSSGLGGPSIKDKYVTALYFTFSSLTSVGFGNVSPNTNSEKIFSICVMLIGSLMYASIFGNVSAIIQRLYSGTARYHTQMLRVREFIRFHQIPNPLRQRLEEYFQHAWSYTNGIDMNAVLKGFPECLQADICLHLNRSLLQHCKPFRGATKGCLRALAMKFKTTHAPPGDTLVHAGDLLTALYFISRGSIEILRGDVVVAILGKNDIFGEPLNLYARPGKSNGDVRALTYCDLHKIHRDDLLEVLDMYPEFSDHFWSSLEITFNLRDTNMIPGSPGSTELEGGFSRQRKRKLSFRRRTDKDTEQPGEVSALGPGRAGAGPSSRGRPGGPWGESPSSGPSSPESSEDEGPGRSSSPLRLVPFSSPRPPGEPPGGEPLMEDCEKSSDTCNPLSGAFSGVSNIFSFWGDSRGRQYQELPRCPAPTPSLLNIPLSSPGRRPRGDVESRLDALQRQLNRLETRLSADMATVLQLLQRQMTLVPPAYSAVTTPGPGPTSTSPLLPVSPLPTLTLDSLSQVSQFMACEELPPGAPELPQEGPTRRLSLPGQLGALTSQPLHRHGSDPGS
# testName: Inhibition of human ERG stably expressed in CHO cells at -80 mV holding voltage by automated QPatch electrophysiological assay
# Format: toxicity, cell-based
measurementLabel: IC50 (µM)

- Cc1ncn(CC(=O)N2CCN(c3sc(C(F)(F)F)nc3-c3cnc(C(F)(F)F)nc3)C[C@H]2C)n1: 17
- C[C@@H]1CN(c2sc(C(F)(F)F)nc2-c2cnc(C(F)(F)F)nc2)CCN1C(=O)Cn1cnc(C(F)(F)F)n1: 3.9
- CCc1ncnn1CC(=O)N1CCN(c2sc(C(F)(F)F)nc2-c2cnc(C(F)(F)F)nc2)C[C@H]1C: 13
- CCc1ncn(CC(=O)N2CCN(c3sc(C(F)(F)F)nc3-c3cnc(C(F)(F)F)nc3)C[C@@H]2CCO)n1: 27
- Cc1ccn(CC(=O)N2CCN(c3sc(C(F)(F)F)nc3-c3cnc(C(F)(F)F)nc3)C[C@@H]2CO)n1: 21

###

# testName: Oral bioavailability in Wistar rat at 2 mg/kg
# Assay type: ADME, organism-based
# conditionLabel: in vivo
measurementLabel: bioavailability

* CC(C)c1ncn(CC(=O)N2CCN(c3sc(C(F)(F)F)nc3-c3cnc(C(F)(F)F)nc3)C[C@H]2C)n1 | > 100%

###

# measurementTarget: C-X-C chemokine receptor type 3 (Homo sapiens)
# testName: Antagonist activity at human CXCR3 expressed in CHO-K1 cells assessed as reduction in CXCL11 induced calcium flux by FLIPR method
# Assay type: cell-based
pIC50: −log10 of the molar value.
measurementLabel: pIC50

• Cc1ncn(CC(=O)N2CCN(c3sc(C(F)(F)F)nc3-c3cnc(C(F)(F)F)nc3)C[C@H]2CCO)n1 = 8.28

###

# testName: AUC (0 to last) in Beagle dog at 2.5 mg/kg,iv or 2.5 mg/kg, po
# Assay type: ADME, organism-based, Canis lupus familiaris
# Design: dose 2.5 mg/kg, route iv
# conditionLabel: in vivo
measurementLabel: AUC(0-t) (ng·h/mL)

* Cc1ncn(CC(=O)N2CCN(c3sc(C(F)(F)F)nc3-c3cnc(C(F)(F)F)nc3)C[C@H]2CCO)n1 | 3910

###

# testName: Metabolic stability in human liver microsomes assessed as intrinsic clearance at 1 uM and measured upto 15 mins in presence of NADPH regenerating system by LC-MS/MS analysis
# Type: ADME, Microsome
# conditionLabel: read-out: CLH
measurementLabel: microsomal CLint at 1 µM (µL/min/mg)

* CC(C)c1ncn(CC(=O)N2CCN(c3sc(C(F)(F)F)nc3-c3cnc(C(F)(F)F)nc3)C[C@H]2CCO)n1 | 22
* CCc1ccn(CC(=O)N2CCN(c3sc(C(F)(F)F)nc3-c3cnc(C(F)(F)F)nc3)C[C@H]2CCO)n1 | 112
* CC(C)c1ncn(CC(=O)N2CCN(c3sc(C(F)(F)F)nc3-c3cnc(C(F)(F)F)nc3)C[C@@H]2CCO)n1 | 22

###

# measurementTarget: C-X-C chemokine receptor type 3 (Homo sapiens, UniProt P49682)
# Sequence (P49682 whole entry): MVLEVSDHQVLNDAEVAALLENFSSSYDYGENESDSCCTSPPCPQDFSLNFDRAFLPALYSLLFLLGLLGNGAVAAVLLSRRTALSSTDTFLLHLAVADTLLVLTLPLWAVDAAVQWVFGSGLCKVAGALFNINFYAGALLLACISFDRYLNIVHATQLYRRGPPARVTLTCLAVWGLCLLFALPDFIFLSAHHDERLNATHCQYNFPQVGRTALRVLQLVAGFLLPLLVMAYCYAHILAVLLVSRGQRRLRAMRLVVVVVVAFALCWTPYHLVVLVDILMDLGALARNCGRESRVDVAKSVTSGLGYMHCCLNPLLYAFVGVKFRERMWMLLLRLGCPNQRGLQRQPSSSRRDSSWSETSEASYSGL
# testName: Antagonist activity at human CXCR3 expressed in CHO-K1 cells assessed as reduction in CXCL10 induced calcium flux by FLIPR method
# Type: cell-based
pIC50: −log10 of the molar value.
measurementLabel: pIC50

• Cc1ncn(CC(=O)N2CCN(c3sc(C(F)(F)F)nc3-c3cnc(C(F)(F)F)nc3)C[C@H]2CCO)n1 = 8.49

###

# testName: Clearance in Beagle dog at 2.5 mg/kg,iv or 2.5 mg/kg, po
# Assay type: ADME, organism-based, Canis lupus familiaris
# conditionLabel: in vivo
measurementLabel: clearance (mL/min/kg)

• Cc1ncn(CC(=O)N2CCN(c3sc(C(F)(F)F)nc3-c3cnc(C(F)(F)F)nc3)C[C@H]2CCO)n1 = 9.5

###

# testName: Oral bioavailability in Wistar rat at 3 mg/kg
# Type: ADME, organism-based
# conditionLabel: in vivo
measurementLabel: bioavailability (%)

• Cc1ncn(CC(=O)N2CCN(c3sc(C(F)(F)F)nc3-c3cnc(C(F)(F)F)nc3)C[C@H]2CCO)n1 = 80

###

Recorded logD for the following compounds
# testName: Lipophilicity, log D of compound
# Type: physicochemical
# conditionLabel: octanol/water
measurementLabel: logD

* CCc1ncn(CC(=O)N2CCN(c3sc(C(F)(F)F)nc3-c3cnc(C(F)(F)F)nc3)C[C@H]2CCO)n1 | 2.8
* Cc1ncn(CC(=O)N2CCN(c3sc(C(F)(F)F)nc3-c3cnc(C(F)(F)F)nc3)C[C@H]2CCO)n1 | 2.3
* CCc1nncn1CC(=O)N1CCN(c2sc(C(F)(F)F)nc2-c2cnc(C(F)(F)F)nc2)C[C@H]1C | 2.3
* Cc1ccn(CC(=O)N2CCN(c3sc(C(F)(F)F)nc3-c3cnc(C(F)(F)F)nc3)C[C@H]2C)n1 | 3.4
* CCc1ncn(CC(=O)N2CCN(c3sc(C(F)(F)F)nc3-c3cnc(C(F)(F)F)nc3)C[C@H]2CO)n1 | 2.6
* Cc1ccn(CC(=O)N2CCN(c3sc(C(F)(F)F)nc3-c3cnc(C(F)(F)F)nc3)C[C@@H]2CO)n1 | 3
* CCc1ncnn1CC(=O)N1CCN(c2sc(C(F)(F)F)nc2-c2cnc(C(F)(F)F)nc2)C[C@H]1C | 2.8
* Cc1ncn(CC(=O)N2CCN(c3sc(C(F)(F)F)nc3-c3cnc(C(F)(F)F)nc3)C[C@H]2C)n1 | 2.7

###

# testName: Solubility of compound in FeSSIF at 37 degreeC
# Format: ADME
measurementLabel: solubility (µg/mL)

- Cc1ncn(CC(=O)N2CCN(c3sc(C(F)(F)F)nc3-c3cnc(C(F)(F)F)nc3)C[C@H]2CCO)n1: 1250

###

# measurementTarget: C-X-C chemokine receptor type 3 (Canis lupus familiaris)
# Sequence (Q5KSK8 whole entry): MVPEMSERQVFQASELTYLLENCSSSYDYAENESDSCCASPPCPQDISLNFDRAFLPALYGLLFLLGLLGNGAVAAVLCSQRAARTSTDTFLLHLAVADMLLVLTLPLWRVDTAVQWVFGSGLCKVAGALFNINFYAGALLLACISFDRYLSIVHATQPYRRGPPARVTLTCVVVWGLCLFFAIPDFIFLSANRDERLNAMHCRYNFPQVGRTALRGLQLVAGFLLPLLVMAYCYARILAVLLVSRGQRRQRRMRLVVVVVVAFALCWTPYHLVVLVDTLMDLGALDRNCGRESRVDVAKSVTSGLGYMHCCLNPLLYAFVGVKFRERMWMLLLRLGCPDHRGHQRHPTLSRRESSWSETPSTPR
# testName: Antagonist activity at dog CXCR3 expressed in CHO-K1 cells assessed as reduction in CXCL10 induced calcium flux by FLIPR method
# Assay type: cell-based
measurementLabel: IC50 (nM)

* Cc1ncn(CC(=O)N2CCN(c3sc(C(F)(F)F)nc3-c3cnc(C(F)(F)F)nc3)C[C@H]2CCO)n1 | 2.8

###

# testName: Half life in Wistar rat at 3 mg/kg,iv or 3mg/kg, po
# Assay type: ADME, organism-based
# conditionLabel: in vivo
measurementLabel: half-life (h)

* Cc1ncn(CC(=O)N2CCN(c3sc(C(F)(F)F)nc3-c3cnc(C(F)(F)F)nc3)C[C@H]2CCO)n1 | 5.5

###

# testName: Metabolic stability in human liver microsomes assessed as intrinsic clearance at 1 uM and measured upto 15 mins in presence of NADPH regenerating system by LC-MS/MS analysis
# Type: ADME, Microsome
# conditionLabel: read-out: CLH
measurementLabel: microsomal CLint at 1 µM

• Cc1ncn(CC(=O)N2CCN(c3sc(C(F)(F)F)nc3-c3cnc(C(F)(F)F)nc3)C[C@H]2CCO)n1 = < 10 µL/min/mg
• Cc1ncn(CC(=O)N2CCN(c3sc(C(F)(F)F)nc3-c3cnc(C(F)(F)F)nc3)C[C@@H]2CCO)n1 = < 10 µL/min/mg
• CCc1ncn(CC(=O)N2CCN(c3sc(C(F)(F)F)nc3-c3cnc(C(F)(F)F)nc3)C[C@H]2CCO)n1 = < 10 µL/min/mg
• CC(C)c1ncn(CC(=O)N2CCN(c3sc(C(F)(F)F)nc3-c3cnc(C(F)(F)F)nc3)C[C@H]2CO)n1 = 33 µL/min/mg
